Assay: Selectivity index, ratio of IC50 for rat L6 cells to IC50 for Trypanosoma cruzi Tulahuen C2C4
Type: toxicity, cell-based
Conditions: read-out: Ratio IC50
measurement_kind: selectivity ratio

See these solved cases before continuing.
compound=c1cc(C2=NCCN2)cc(-c2cccc(-c3cccc(C4=NCCN4)c3)c2)c1 reported_measurement=2
compound=N=C(Nc1ccc(-c2cccc(-c3cccc(NC(=N)c4ccccc4)c3)c2)cc1)c1ccccc1 reported_measurement=1
compound=Cl.Cl.N=C(N)c1ccc(-c2cccc(-c3ccc(C(=N)N)cc3)c2)cc1 reported_measurement="< 1"

Enquiry: Returns the measured selectivity ratio for the input compound. Input: `CC(C)Oc1ccc(NC(=N)c2ccccn2)cc1-c1cc(Cl)cc(-c2ccccc2)c1`
Return: 1

====

Experiment: Selectivity index, ratio of IC50 for rat L6 cells to IC50 for Trypanosoma brucei rhodesiense STIB900
Type: toxicity, cell-based
Conditions: L6 cells, read-out: Ratio IC50
Exam item: assign condition met to entries whose selectivity ratio is below 2000 and condition not met to entries at or above 2000. Note that a value of exactly 2000 receives condition not met.

compound=CC(C)NC(=N)c1ccc(-c2cccc(-c3ccc(C(=N)NC(C)C)cc3)c2)cc1.Cl.Cl classification="condition not met"
compound=N=C(N)c1cccc(-c2cc(Cl)cc(-c3cccc(C(=N)N)c3)c2)c1 classification="condition met"
compound=Cl.Cl.N=C(N)c1ccc(-c2cccc(-c3ccc(C(=N)N)cc3)c2)cc1 classification="condition not met"
compound=CC1(C)CN=C(c2cccc(-c3cccc(-c4cccc(C5=NCC(C)(C)CN5)c4)c3)c2)NC1 classification="condition met"
compound=N=C(Nc1cccc(-c2cc(Cl)cc(-c3cccc(NC(=N)c4ccccc4)c3)c2)c1)c1ccccc1 classification="condition met"

Lab note: next compound to report on.
Enquiry: Problem: For the compound `COc1cc(-c2ccc(C(=N)N)cc2)cc(-c2ccc(C(=N)N)cc2)c1.Cl.Cl` , is selectivity ratio under 2000?
Return: condition not met

====

Test system: Trypanosoma brucei rhodesiense
Test: Antiprotozoal activity against Trypanosoma brucei rhodesiense STIB900 infected in NMRI mouse assessed as host mean survival days at 25 mg/kg, po qd for 4 days
Format: functional
measurement_kind: MSD

Consider the worked cases shown below.
compound=Cl.Cl.N/C(=N\O)c1cccc(-c2cccc(-c3cccc(/C(N)=N\O)c3)c2)c1 target_of_assay="Trypanosoma brucei rhodesiense" reported_measurement="7.25 days"
compound=CN(C)CC(=O)O/N=C(\N)c1ccc(-c2cccc(-c3ccc(/C(N)=N\OC(=O)CN(C)C)cn3)c2)nc1 target_of_assay="Trypanosoma brucei rhodesiense" reported_measurement=">52 days"
compound=CO/N=C(/N)c1ccc(-c2cccc(-c3ccc(/C(N)=N\OC)cc3)c2)cc1.Cl.Cl target_of_assay="Trypanosoma brucei rhodesiense" reported_measurement=">34.25 days"
compound=CO/N=C(\N)c1cccc(-c2cccc(-c3cccc(/C(N)=N\OC)c3)c2)c1.Cl.Cl target_of_assay="Trypanosoma brucei rhodesiense" reported_measurement="17.25 days"

Hey, quick one: what's MSD for each of these?
1. CO/N=C(\N)c1ccc(-c2cccc(-c3ccc(/C(N)=N\OC)cn3)c2)nc1.Cl
2. Cl.Cl.N/C(=N/O)c1ccc(-c2cccc(-c3ccc(/C(N)=N\O)cc3)c2)cc1

Return:
[">53.75 days", ">51.25 days"]

====

Test system: Trypanosoma brucei rhodesiense
Test: Antiprotozoal activity against Trypanosoma brucei rhodesiense STIB900 after 72 hrs by Alamar Blue assay
Type: functional, organism-based
Details: Trypanosoma brucei, STIB900, 72 h
measurement_kind: pIC50
One number for each entry, as −log10 of the molar value.

Recorded pIC50, per entry:
compound=COc1cc(-c2ccc(C(=N)N)cc2)cc(-c2ccc(C(=N)N)cc2)c1.Cl.Cl measurement_kind=pIC50 reported_measurement=8.30
compound=CN(C)CC(=O)O/N=C(\N)c1ccc(-c2cccc(-c3ccc(/C(N)=N\OC(=O)CN(C)C)cn3)c2)nc1 measurement_kind=pIC50 reported_measurement=5.01
compound=CC1(C)CN=C(c2cccc(-c3cccc(-c4cccc(C5=NCC(C)(C)CN5)c4)c3)c2)NC1 measurement_kind=pIC50 reported_measurement=6.09

Could you report pIC50 for every entry in the following list?
1. CC(C)Oc1ccc(NC(=N)c2ccccn2)cc1-c1cc(Cl)cc(-c2ccccc2)c1
2. N=C(Nc1ccc(-c2cc(Cl)cc(-c3cccc(NC(=N)c4ccccc4)c3)c2)cc1)c1ccccc1

Return:
[4.91, 6.75]

====

Tested on: Trypanosoma brucei rhodesiense
Test: Antiprotozoal activity against Trypanosoma brucei rhodesiense STIB900 after 72 hrs by Alamar Blue assay
Format: functional, organism-based
Details: Trypanosoma brucei, STIB900, 72 h
Record form. Attribute: pIC50. Fill in for each entry.
Give bare numbers, as −log10 of the molar value.

compound=c1cc(C2=NCCN2)cc(-c2cccc(-c3cccc(C4=NCCN4)c3)c2)c1 measurement_kind=pIC50 reported_measurement=5.80
compound=CO/N=C(\N)c1cccc(-c2cccc(-c3cccc(/C(N)=N\OC)c3)c2)c1.Cl.Cl measurement_kind=pIC50 reported_measurement=4.95
compound=Cl.Cl.N=C(N)c1ccc(-c2cc(-c3ccc(C(=N)N)cc3)cc([N+](=O)[O-])c2)cc1 measurement_kind=pIC50 reported_measurement=7.70

List pIC50 for every entry below, keeping the order given.
1. Cl.Cl.Cl.N=C(Nc1ccc(-c2cc(Cl)cc(-c3cccc(NC(=N)c4ccccn4)c3)c2)cc1)c1ccccn1
2. Cl.Cl.N/C(=N\O)c1cccc(-c2cccc(-c3cccc(/C(N)=N\O)c3)c2)c1
3. N=C(N)c1cncc(-c2cccc(-c3cncc(C(=N)N)c3)c2)c1
4. CC(=O)O.N=C(N)c1ccc(-c2cccc(-c3ccc(C(=N)N)cn3)c2)nc1
5. CO/N=C(/N)c1ccc(-c2cccc(-c3ccc(/C(N)=N\OC)cc3)c2)cc1.Cl.Cl
6. N=C(Nc1ccc(-c2cccc(-c3cccc(NC(=N)c4ccccc4)c3)c2)cc1)c1ccccc1

Return:
6.96
5.59
6.28
7.66
5.35
6.20

====

Test: Selectivity index, ratio of IC50 for rat L6 cells to IC50 for Plasmodium falciparum K1
Format: toxicity, cell-based
Conditions: L6 cells, read-out: Ratio IC50
Labelling field: enter MET if recorded selectivity ratio is less than 400. Enter NOT MET if it equals or exceeds that cut-off.

compound=N=C(Nc1cccc(-c2cc(Cl)cc(-c3cccc(NC(=N)c4ccccc4)c3)c2)c1)c1ccccc1 classification=MET

Enquiry: Below 400 on selectivity ratio? Entry `CN(C)CC(=O)O/N=C(\N)c1ccc(-c2cccc(-c3ccc(/C(N)=N\OC(=O)CN(C)C)cn3)c2)nc1`
Return: MET

Enquiry: Given `Cl.Cl.N=C(N)c1ccc(-c2cccc(-c3cccc(C(=N)N)c3)c2)cc1` , is recorded selectivity ratio strictly lower than 400?
Return: NOT MET

Enquiry: Take the compound `Cl.Cl.Cl.N=C(Nc1cccc(-c2cc(Cl)cc(-c3cccc(NC(=N)c4ccccn4)c3)c2)c1)c1ccccn1` and say whether its selectivity ratio is less than 400.
Return: NOT MET

Enquiry: Answer whether the compound `N=C(N)c1ccnc(-c2cccc(-c3cc(C(=N)N)ccn3)c2)c1` has selectivity ratio strictly less than 400
Return: NOT MET

Enquiry: Is selectivity ratio strictly under 400 for the entry `CC1(C)CN=C(c2cccc(-c3cccc(-c4cccc(C5=NCC(C)(C)CN5)c4)c3)c2)NC1` ?
Return: NOT MET

Enquiry: Check if selectivity ratio falls below 400 for `Cl.Cl.N=C(N)c1ccc(-c2cccc(-c3ccc(C(=N)N)cc3)c2)cc1` .
Return: NOT MET

Enquiry: Report whether reported selectivity ratio is lower than 400 (strictly) for `CC(C)NC(=N)c1ccc(-c2cccc(-c3ccc(C(=N)NC(C)C)cc3)c2)cc1.Cl.Cl`
Return: NOT MET

====

Assay: Selectivity index, ratio of IC50 for rat L6 cells to IC50 for Leishmania amazonensis
Type: toxicity, cell-based
Conditions: read-out: Ratio IC50
measurement_kind: selectivity ratio
One number for each entry.

Previously resolved entries follow.
compound=N=C(Nc1cccc(-c2cc(Cl)cc(-c3cccc(NC(=N)c4ccccc4)c3)c2)c1)c1ccccc1 reported_measurement=2
compound=Cl.Cl.Cl.N=C(Nc1ccc(-c2cc(Cl)cc(-c3cccc(NC(=N)c4ccccn4)c3)c2)cc1)c1ccccn1 reported_measurement=13
compound=Cl.Cl.N=C(Nc1ccc(-c2cccc(-c3cccc(NC(=N)c4ccccn4)c3)c2)cc1)c1ccccn1 reported_measurement=22
compound=CC(C)Oc1ccc(NC(=N)c2ccccn2)cc1-c1cc(Cl)cc(-c2ccccc2)c1 reported_measurement=2
compound=Cl.Cl.Cl.N=C(Nc1cccc(-c2cc(Cl)cc(-c3cccc(NC(=N)c4ccccn4)c3)c2)c1)c1ccccn1 reported_measurement=26
compound=N=C(Nc1ccc(-c2cccc(-c3cccc(NC(=N)c4ccccc4)c3)c2)cc1)c1ccccc1 reported_measurement=3
compound=N=C(Nc1ccc(-c2cc(Cl)cc(-c3cccc(NC(=N)c4ccccc4)c3)c2)cc1)c1ccccc1 reported_measurement=2

Could you now look at the following compound, please?
Enquiry: Entry `CC(C)Oc1cc(NC(=N)c2ccccn2)ccc1-c1cc(Cl)cc(-c2ccccc2)c1` : reported selectivity ratio = ?
Return: 10
